For each record, write down the corresponding Rate of uptake inhibition (%) (1 µM).
test system: rat small-intestinal brush border membrane vesicles; experiment: Inhibitory effect on 33PO4 uptake into rat small-intestinal brush border membrane vesicles (rapid filtration method); type: biochemical, Wistar female rat; settings: 1 µM test compound; 33PO4 uptake into rat small-intestinal BBMVs, 60 seconds
Kindly answer with a numeric value in %, unit omitted.

-- ask So what does the record say about Rate of uptake inhibition (%) (1 µM) for C[C@]12CCCN1N(Cc1cccc(F)c1F)C(=O)C(C(=O)Nc1ccc(C(F)(F)F)cc1-c1cc(C(F)(F)F)ncn1)=C2O ?
-- reply 61

-- ask Now try CN1N(Cc2ccc(OCCN3CCOCC3)c(F)c2F)C(=O)C(C(=O)Nc2ccc(C(F)(F)F)cc2-c2cc(C(F)(F)F)ncn2)=C(O)C1(C)C .
-- reply 65

-- ask Now try C[C@]12CCCN1N(Cc1cccc(F)c1F)C(=O)C(C(=O)Nc1ccc(Br)cc1F)=C2O .
-- reply 74

-- ask Now try C[C@]12CCCN1N(Cc1cc(F)cc(F)c1)C(=O)C(C(=O)Nc1ccc(C(F)(F)F)cc1-c1cc(C(F)(F)F)ncn1)=C2O .
-- reply 79

-- ask Now try CN1N(Cc2ccc(OCCN3CCOCC3)c(F)c2F)C(=O)C(C(=O)Nc2ccc(C(F)(F)F)cc2-c2ncnc(C(F)(F)F)c2Cl)=C(O)C12CCC2 .
-- reply 46

-- ask Now try COc1cccc(-c2cc(C(F)(F)F)ccc2NC(=O)C2=C(O)[C@@]3(C)CCCN3N(Cc3ccc(C#CCOCCCCO)c(F)c3F)C2=O)c1OC .
-- reply 87

-- ask Now try C[C@]12CCCN1N(Cc1ccc(OC[C@H]3CCCO3)c(F)c1F)C(=O)C(C(=O)Nc1ccc(C(F)(F)F)cc1-c1ccc(C(F)(F)F)nc1)=C2O .
-- reply 77

-- ask Now try CN1N(Cc2ccc(OCCN[C@@H](CC(=O)O)C(=O)O)c(F)c2F)C(=O)C(C(=O)Nc2ccc(C(F)(F)F)cc2-c2cc(C(F)(F)F)ncn2)=C(O)C12CCCC2 .
-- reply 28

-- ask Now try Cc1ccc(CN2C(=O)C(C(=O)Nc3ccc(C(F)(F)F)cc3-c3cc(C(F)(F)F)ncn3)=C(O)[C@@]3(C)CCCN23)cc1 .
-- reply 80

-- ask Now try CN1N(Cc2ccc(OCCN3CCOCC3)c(F)c2F)C(=O)C(C(=O)Nc2ccc(Cl)cc2-c2cc(C(F)(F)F)ncn2)=C(O)C12CCCC2 .
-- reply 50

-- ask Now try CN1N(Cc2ccc(OCCCCOC[C@H](O)CO)c(F)c2F)C(=O)C(C(=O)Nc2ccc(C(F)(F)F)cc2-c2ccc(C(F)(F)F)nc2)=C(O)C12CCC2 .
-- reply 39

-- ask Now try C[C@]12CCCN1N(Cc1cccc(Cl)c1)C(=O)C(C(=O)Nc1ccc(C(F)(F)F)cc1-c1ccc(C(F)(F)F)nc1)=C2O .
-- reply 73

-- ask Now try COC(=O)CN(C)CCOc1ccc(CN2C(=O)C(C(=O)Nc3ccc(C(F)(F)F)cc3-c3cc(C(F)(F)F)ncn3)=C(O)C3(CCC3)N2C)c(F)c1F .
-- reply 42

-- ask Now try C[C@]12CCCN1N(Cc1cccc(F)c1F)C(=O)C(C(=O)Nc1ccc(Br)cc1)=C2O .
-- reply 80

-- ask Now try CN1N(Cc2ccc(NCCN3CCOCC3)c(F)c2F)C(=O)C(C(=O)Nc2ccc(C(F)(F)F)cc2-c2cc(C(F)(F)F)ncn2)=C(O)C12CCCC2 .
-- reply 50

-- ask Now try COC(=O)[C@@H]1CCCN1CCOc1ccc(CN2C(=O)C(C(=O)Nc3ccc(C(F)(F)F)cc3-c3cc(C(F)(F)F)ncn3)=C(O)C3(CCC3)N2C)c(F)c1F .
-- reply 36

-- ask Now try Cc1cc(NC(=O)C2=C(O)[C@]3(C)CCCN3N(Cc3cccc(F)c3)C2=O)c(C(F)(F)F)o1 .
-- reply 37

-- ask Now try C[C@]12CCCN1N(Cc1ccc(F)cc1)C(=O)C(C(=O)Nc1ccc(C(F)(F)F)cc1-c1ccc(C(F)(F)F)nc1)=C2O .
-- reply 79

-- ask Now try CN(C[C@H](O)[C@@H](O)[C@H](O)[C@H](O)CO)C(=O)CCOCCOCCOCCOc1ccc(CN2C(=O)C(C(=O)Nc3ccc(C(F)(F)F)cc3-c3cc(C(F)(F)F)ncn3)=C(O)C3(CCCC3)N2C)c(F)c1F .
-- reply 5

-- ask Now try CN1N(Cc2ccc(OCCCCOC[C@H](O)CO)c(F)c2F)C(=O)C(C(=O)Nc2ccc(C(F)(F)F)cc2-c2ccc(C(F)(F)F)nc2)=C(O)C12CCCC2 .
-- reply 23

-- ask Now try COCCN(C)CCOCCOc1ccc(CN2C(=O)C(C(=O)Nc3ccc(C(F)(F)F)cc3-c3cc(C(F)(F)F)ncn3)=C(O)C3(CCCC3)N2C)c(F)c1F .
-- reply 41

-- ask Now try COc1ncc(-c2cc(C(F)(F)F)ccc2NC(=O)C2=C(O)[C@@]3(C)CCCN3N(Cc3cccc(F)c3F)C2=O)c(OC)n1 .
-- reply 92

-- ask Now try CN1N(Cc2cccc(F)c2F)C(=O)C(C(=O)Nc2ccc(C(F)(F)F)cc2-c2ccc(C(F)(F)F)nc2)=C(O)C12CCC2 .
-- reply 79

-- ask Now try C[C@]12CCCN1N(Cc1cccc(C#N)c1)C(=O)C(C(=O)Nc1cc(F)c(Br)c(F)c1)=C2O .
-- reply 96
